Assign switch fluorescence ratio to each entry below.
System: ATP;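 further: ATP exposure 15 min at 22 °C before imaging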
Experiment: switch fluorescence ratio, 500 uM ATP over buffer (Cy3 cluster intensity, sum of 5 cycles each) (fold (ratio)); higher = stronger signal-on switching upon ATP binding; sequences stand for … in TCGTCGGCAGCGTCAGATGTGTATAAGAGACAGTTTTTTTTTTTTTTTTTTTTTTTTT…TC
Measurement setup: aptamer strand: ATP DNA aptamer (quencher-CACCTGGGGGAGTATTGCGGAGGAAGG + anchor), 100 nM annealed; ATP concentration: 500 uM
Numbers only.

// below: answered sequences
# Chain sequence, Recorded number
rows = [
    ("AAAATGGTCA", 1.01),
    ("GACTTGCTGA", 1),
    ("CCTTCTAGTT", 1.04),
    ("TTTCCAGGG", 1.17),
    ("GAAAACGGGG", 1.01),
]

Each of the following entries comes with a recorded value; kindly state switch fluorescence ratio for each.
1. TTGTAGTCTC
2. GTAATTGGGT
3. GGGGGATAGC

Solution:
1.03
0.986
0.991

----------
Tested on: ATP;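 further: ATP exposure 15 min at 22 °C before imaging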
Experiment: switch fluorescence ratio, 500 uM ATP over buffer (Cy3 cluster intensity, sum of 5 cycles each) (fold (ratio)); higher = stronger signal-on switching upon ATP binding; sequences stand for … in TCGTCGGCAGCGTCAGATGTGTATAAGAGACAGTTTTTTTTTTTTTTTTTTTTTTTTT…TC
Measurement setup: aptamer strand: ATP DNA aptamer (quencher-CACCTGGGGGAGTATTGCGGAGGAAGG + anchor), 100 nM annealed; ATP concentration: 500 uM
Observed property: switch fluorescence ratio
One number for each entry.

# Chain sequence, switch fluorescence ratio
records = [
    ("CAGCGCCATA", 1.08),
    ("AAAATAAAG", 0.947),
    ("TCGTGGTGGT", 0.974),
    ("AAAAGGGCGG", 1.01),
    ("TAAAGGGGGT", 1.01),
    ("TCGGATTGGC", 0.985),
    ("TTTGATACCA", 1.01),
    ("CAGGGGTGTG", 0.996),
]

Each of the following entries comes with a recorded value; kindly state switch fluorescence ratio for each.
1. ACGGTTGGT
2. GGGAAAATA
3. TAACGAAAAA
4. CGAGTTTTTA

Solution:
1.02
0.969
1.03
0.994

----------
System: ATP;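 further: ATP exposure 15 min at 22 °C before imaging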
Experiment: switch fluorescence ratio, 500 uM ATP over buffer (Cy3 cluster intensity, sum of 5 cycles each) (fold (ratio)); higher = stronger signal-on switching upon ATP binding; sequences stand for … in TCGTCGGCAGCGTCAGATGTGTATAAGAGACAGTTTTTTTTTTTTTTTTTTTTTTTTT…TC
Measurement setup: aptamer strand: ATP DNA aptamer (quencher-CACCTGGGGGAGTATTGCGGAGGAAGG + anchor), 100 nM annealed; ATP concentration: 500 uM
Assign switch fluorescence ratio to each entry below.

// below: answered sequences
# Chain sequence, switch fluorescence ratio
data = [
    ("ACTTTCTGGA", 1),
    ("GGGTTTGCAT", 1.02),
]

Each of the following entries comes with a recorded value; kindly state switch fluorescence ratio for each.
1. TTTATTTTCA
2. AAGGGAAACA

Solution:
0.992
1.04

Each of the following entries comes with a recorded value; kindly state switch fluorescence ratio for each.
1. ATTTAGGATG
2. CGGCAGGCGG
3. CTTTTAGTTA
4. AAAGGAAGAA
5. TTTCATGGGT
6. GGCTGGCTGA
7. GGACCATATC

Solution:
[1.01, 1.05, 1.01, 1.01, 1, 0.987, 1.07]

Each of the following entries comes with a recorded value; kindly state switch fluorescence ratio for each.
1. CCACGTGAGG
2. CACATAGTTT
3. GATCTATGTT

Solution:
1: 1.03; 2: 1.03; 3: 0.996

----------
Assign switch fluorescence ratio to each entry below.
Test system: ATP;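 further: ATP exposure 15 min at 22 °C before imaging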
Experiment: switch fluorescence ratio, 500 uM ATP over buffer (Cy3 cluster intensity, sum of 5 cycles each) (fold (ratio)); higher = stronger signal-on switching upon ATP binding; sequences stand for … in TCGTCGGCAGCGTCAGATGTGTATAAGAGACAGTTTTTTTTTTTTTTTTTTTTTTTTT…TC
Measurement setup: aptamer strand: ATP DNA aptamer (quencher-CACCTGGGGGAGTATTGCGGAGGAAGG + anchor), 100 nM annealed; ATP concentration: 500 uM
Give bare numbers.

# Chain sequence, Recorded number
records = [
    ("CAGGTAAGGT", 1.01),
    ("AGTAGAGGTT", 1.01),
]

Each of the following entries comes with a recorded value; kindly state switch fluorescence ratio for each.
1. GAGAGTGACT
2. AAAAGAAGCA
3. TCTGTGTTGA
4. TTATATGAGG
5. ACACGGGTGC
6. GATAGATGGC

Solution:
1. 0.969
2. 0.948
3. 1
4. 0.962
5. 1.74
6. 0.989

----------
System: ATP;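 further: ATP exposure 15 min at 22 °C before imaging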
Experiment: switch fluorescence ratio, 500 uM ATP over buffer (Cy3 cluster intensity, sum of 5 cycles each) (fold (ratio)); higher = stronger signal-on switching upon ATP binding; sequences stand for … in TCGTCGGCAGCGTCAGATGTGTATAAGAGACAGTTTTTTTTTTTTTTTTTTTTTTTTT…TC
Measurement setup: aptamer strand: ATP DNA aptamer (quencher-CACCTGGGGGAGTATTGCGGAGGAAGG + anchor), 100 nM annealed; ATP concentration: 500 uM
Assign switch fluorescence ratio to each entry below.
Give bare numbers.

Each of the following entries comes with a recorded value; kindly state switch fluorescence ratio for each.
1. AATGACGGTA
2. CGTTTACTTA
3. TCGGGGGTTT

Solution:
1. 1.06
2. 1.02
3. 1

Each of the following entries comes with a recorded value; kindly state switch fluorescence ratio for each.
1. TATCCGGGTG
2. CGTACGGCGG
3. ATAATGTGGG
4. TCGGGGGCGG
5. GGCCAATCAG
6. AAAAGAGTAT
7. TATTCATGTT

Solution:
3.23
1.01
0.996
1.02
1.02
1
0.991

----------
Assign switch fluorescence ratio to each entry below.
System: ATP;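 further: ATP exposure 15 min at 22 °C before imaging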
Experiment: switch fluorescence ratio, 500 uM ATP over buffer (Cy3 cluster intensity, sum of 5 cycles each) (fold (ratio)); higher = stronger signal-on switching upon ATP binding; sequences stand for … in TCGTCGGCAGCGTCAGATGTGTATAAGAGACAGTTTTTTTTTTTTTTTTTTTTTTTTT…TC
Measurement setup: aptamer strand: ATP DNA aptamer (quencher-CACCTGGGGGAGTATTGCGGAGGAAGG + anchor), 100 nM annealed; ATP concentration: 500 uM
Give bare numbers.

// below: answered sequences
# Chain sequence, Recorded number
records = [
    ("TTGTAATGAT", 0.988),
    ("GGGTAGGGGT", 1.02),
]

Each of the following entries comes with a recorded value; kindly state switch fluorescence ratio for each.
1. CGCGGGGGAT
2. GGAATCGGGC
3. TCGCGCGGTA
4. ATACACGGCA
5. GCAGGTGTTC
6. AGTTTGGACA

Solution:
1. 1.03
2. 0.949
3. 1.01
4. 1.11
5. 1.14
6. 0.997

Each of the following entries comes with a recorded value; kindly state switch fluorescence ratio for each.
1. AATGCTGTGT
2. GCCTACAACA
3. ATAGCTCTTA
4. GGGAGGTATA

Solution:
1. 0.97
2. 1.02
3. 0.976
4. 0.969

----------
System: ATP;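 further: ATP exposure 15 min at 22 °C before imaging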
Experiment: switch fluorescence ratio, 500 uM ATP over buffer (Cy3 cluster intensity, sum of 5 cycles each) (fold (ratio)); higher = stronger signal-on switching upon ATP binding; sequences stand for … in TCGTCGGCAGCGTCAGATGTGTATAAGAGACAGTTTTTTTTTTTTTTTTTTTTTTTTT…TC
Measurement setup: aptamer strand: ATP DNA aptamer (quencher-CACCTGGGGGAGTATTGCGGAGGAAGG + anchor), 100 nM annealed; ATP concentration: 500 uM
Observed property: switch fluorescence ratio
Give bare numbers.

// below: answered sequences
# Chain sequence, Recorded number
data = [
    ("TTTTCCGCCC", 3.08),
    ("ATATTTTACG", 1.02),
    ("TTGTGCTTTA", 1.01),
    ("TTTTTACTCG", 0.996),
    ("AGTTGGAGCG", 1.03),
    ("AATAAGTTAA", 1),
]

Each of the following entries comes with a recorded value; kindly state switch fluorescence ratio for each.
1. GAAGCGCCGG
2. CATATTCGGC
3. TTTTTGTACT
4. ACGCTGAGCA
5. CATGGGCAG
6. CAGTCCCACG
7. ATAAGGGGAG

Solution:
1.01
0.988
1.11
1.03
0.992
1.02
0.999

Each of the following entries comes with a recorded value; kindly state switch fluorescence ratio for each.
1. TTTTGATACT
2. TGTTTATGTT
3. GAGGGGGAAA
4. AATAGAGGGG
5. AAAATCTAGT

Solution:
1. 1.01
2. 0.998
3. 1.02
4. 0.993
5. 1.01

// provenance: the supplement of paper PMC10126150
